study target: ERR1 (also known as ERR-α or ERR-1) (Homo sapiens, UniProt P11474)
Sequence (P11474 193-421 limits assumed): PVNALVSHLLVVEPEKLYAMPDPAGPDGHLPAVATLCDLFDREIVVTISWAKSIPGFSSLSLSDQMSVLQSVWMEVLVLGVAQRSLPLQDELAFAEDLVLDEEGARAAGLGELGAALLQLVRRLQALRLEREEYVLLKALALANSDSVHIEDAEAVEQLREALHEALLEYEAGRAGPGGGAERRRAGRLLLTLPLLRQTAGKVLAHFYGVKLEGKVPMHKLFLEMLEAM
protocol details: TR-FRET assay (disruption of co-activator peptide binding to ERR1 LBD)
assay context: 6 nM 6His-ERR1LBD, 6 nM GST-SRC-2 peptide; average of 3 independent experiments
pEC50: −log10 of the molar value.
quantity name: pEC50

Observe how each entry below is paired with its result.
O=C1S/C(=C\c2ccc3c(cnn3Cc3ccc(Cl)cc3C(F)(F)F)c2)C(=O)N1[C@@H]1CNC[C@@H]1F (relative stereo)	7.22
Cc1noc(C)c1S(=O)(=O)NCCN1C(=O)S/C(=C\c2ccc3c(cnn3Cc3ccc(Cl)cc3C(F)(F)F)c2)C1=O	6.94
O=C(O)C(C1CCNCC1)N1C(=O)S/C(=C\c2ccc3c(cnn3Cc3ccc(Cl)cc3C(F)(F)F)c2)C1=O (stereo not shown)	7.66
Cc1nc(CN2C(=O)S/C(=C\c3ccc4c(c3)nnn4Cc3ccc(Cl)cc3C(F)(F)F)C2=O)n[nH]1	7.80
O=C(O)CN1C(=O)S/C(=C\c2ccc3c(c2)c(F)nn3Cc2ccc(Cl)cc2C(F)(F)F)C1=O	7.89
O=C1S/C(=C\c2ccc3c(c2)nnn3Cc2ccc(Cl)cc2C(F)(F)F)C(=O)N1O	7.54
O=C(O)CN1C(=O)S/C(=C\c2ccc3c(cnn3[C@H]3CCc4cc(Cl)ccc43)c2)C1=O	7.15
CN1CCC[C@H]1CN1C(=O)S/C(=C\c2ccc3c(cnn3Cc3ccc(Cl)cc3C(F)(F)F)c2)C1=O	8.30

I: O=C1S/C(=C\c2ccc3c(ccn3Cc3ccc(F)cc3C(F)(F)F)c2)C(=O)N1CCN1CCOCC1
II: COC(=O)C1(N2C(=O)S/C(=C\c3ccc4c(cnn4Cc4ccc(Cl)cc4C(F)(F)F)c3)C2=O)CCOCC1
Input: Consider I and II . Which of these has its pEC50 at a higher number? // caller expects the label of the chosen entry
Output: II

A: COC(=O)C(C1CCOCC1)N1C(=O)S/C(=C\c2ccc3c(cnn3Cc3ccc(Cl)cc3C(F)(F)F)c2)C1=O (stereo not shown)
B: NS(=O)(=O)NC(=O)CN1C(=O)S/C(=C\c2ccc3c(cnn3Cc3ccc(Cl)cc3C(F)(F)F)c2)C1=O
Input: Pick one, A or B : lowest reported pEC50. // caller expects the label of the chosen entry
Output: A

1: COC(=O)NC1(CN2C(=O)S/C(=C\c3ccc4c(cnn4Cc4ccc(Cl)cc4C(F)(F)F)c3)C2=O)CCOCC1
2: O=C1S/C(=C\c2ccc3c(cnn3Cc3ccc(Cl)cc3C(F)(F)F)c2)C(=O)N1CCN1CC(O)C1
3: O=C1S/C(=C\c2ccc3c(c2)nnn3Cc2ccc(Cl)cc2C(F)(F)F)C(=O)N1Cc1nnn[nH]1
Input: Kindly order the items shown according to pEC50, from the highest value down. # format: label list in the order the request specifies
Output: 1, 3, 2
(1: 7.82, 3: 7.40, 2: 6.89)

A: CN(CCO)CCN1C(=O)S/C(=C\c2ccc3c(cnn3Cc3ccc(Cl)cc3C(F)(F)F)c2)C1=O
B: O=C(O)C1CCC(N2C(=O)S/C(=C\c3ccc4c(c3)c(Cl)nn4Cc3ccc(Cl)cc3C(F)(F)F)C2=O)CC1 (stereo not shown)
Input: Pick one, A or B : lowest reported pEC50. // caller expects the label of the chosen entry
Output: A

a: NC(CN1C(=O)S/C(=C\c2ccc3c(cnn3Cc3ccc(Cl)cc3C(F)(F)F)c2)C1=O)C(F)(F)F (stereo not shown)
b: O=C1S/C(=C\c2ccc3c(cnn3Cc3ccc(Cl)cc3C(F)(F)F)c2)C(=O)N1C1CCN(CC(F)(F)F)CC1
Input: Pick one, a or b : lowest reported pEC50. // caller expects the label of the chosen entry
Output: b
(b: 7.24, a: 7.49)

A: O=C1S/C(=C\c2ccc3c(cnn3Cc3ccc(Cl)cc3C(F)(F)F)c2)C(=O)N1C[C@@H]1CN(CCO)CCO1
B: O=C(CN1C(=O)S/C(=C\c2ccc3c(cnn3Cc3ccc(Cl)cc3C(F)(F)F)c2)C1=O)N1CCN[C@@H](CO)C1
Input: Consider A and B . Which of these has its pEC50 at a higher number? // caller expects the label of the chosen entry
Output: A
(A: 7.57, B: 7.23)

1: CCN1C[C@@H](N2C(=O)S/C(=C\c3ccc4c(cnn4Cc4ccc(Cl)cc4C(F)(F)F)c3)C2=O)[C@@H](F)C1 (relative stereo)
2: O=C1S/C(=C\c2ccc3c(cnn3Cc3ccc(Cl)cc3C(F)(F)F)c2)C(=O)N1CCN1CC[C@H](O)C1
Input: Consider 1 and 2 . Which of these has its pEC50 at a higher number? // caller expects the label of the chosen entry
Output: 1
(1: 7.48, 2: 6.89)

I: COC[C@@H](N)CN1C(=O)S/C(=C\c2ccc3c(cnn3Cc3ccc(Cl)cc3C(F)(F)F)c2)C1=O
II: O=C(O)CN1C(=O)S/C(=C\c2ccc3c(cnn3Cc3ccc(F)cc3C(F)(F)F)c2)C1=O
Input: Consider I and II . Which of these has its pEC50 at a higher number? // caller expects the label of the chosen entry
Output: I
